System: Ehrlich ascites carcinoma
Test: Inhibition of Ehrlich solid tumor in mice, intraperitoneal administration (Table 1)
Type: in vivo, ddY mice
Conditions: 40 mg/kg i.p. once daily for 7 days
Exercise: state measured Body weight change for each of the compounds provided.

# annotated cases, reported Body weight change shown
COc1cc(N)c(Cl)cc1C(=O)n1c(=O)c(F)cn([C@H]2C[C@H](O)[C@@H](CO)O2)c1=O
+7.3 g
O=C(c1ccc(Br)o1)n1c(=O)c(F)cn([C@H]2C[C@H](O)[C@@H](CO)O2)c1=O
+4.7 g
CN(C)c1ccc(C(=O)n2c(=O)c(F)cn([C@H]3C[C@H](O)[C@@H](CO)O3)c2=O)cc1
+4.7 g
O=Cc1ccc(C(=O)n2c(=O)c(F)cn([C@H]3C[C@H](O)[C@@H](CO)O3)c2=O)cc1
+7.1 g
O=C(c1cccc(C(F)(F)F)c1)n1c(=O)c(F)cn([C@H]2C[C@H](O)[C@@H](CO)O2)c1=O
+5.3 g
O=C(c1cc(Br)cs1)n1c(=O)c(F)cn([C@H]2C[C@H](O)[C@@H](CO)O2)c1=O
+5.3 g
O=C(Nc1ccc(C(=O)n2c(=O)c(F)cn([C@H]3C[C@H](O)[C@@H](CO)O3)c2=O)cc1)C(Cl)Cl
+6.5 g
Cc1ccsc1C(=O)n1c(=O)c(F)cn([C@H]2C[C@H](O)[C@@H](CO)O2)c1=O
+6.4 g
O=C(c1cc(O)cc(O)c1)n1c(=O)c(F)cn([C@H]2C[C@H](O)[C@@H](CO)O2)c1=O
+7.9 g

Let us move to another entry and its Body weight change.
Query: Report Body weight change for `O=C(c1ccccc1F)n1c(=O)c(F)cn([C@H]2C[C@H](O)[C@@H](CO)O2)c1=O` tested on Ehrlich ascites carcinoma.
Result: +7.4 g

---

Provide the reported T/C (average tumor weight ratio between test group and control group) of each item.
Test system: Ehrlich ascites carcinoma
Test: Inhibition of Ehrlich solid tumor in mice, oral administration starting six days after inoculation (Table 2)
Type: in vivo, ddY mice
Settings: 60 mg/kg orally once daily for 10 days from day 6, Ehrlich, day 21
One number for each entry, in %.

Use these answered entries as a reference point.
O=C(c1ccc2c(c1)OCO2)n1c(=O)c(F)cn([C@H]2C[C@H](O)[C@@H](CO)O2)c1=O
30
O=c1[nH]c(=O)n([C@H]2C[C@H](O)[C@@H](CO)O2)cc1F [FUDR, 5-fluoro-2'-deoxy-β-uridine, reference compound]
48.6
O=C(c1ccc(F)cc1)n1c(=O)c(F)cn([C@H]2C[C@H](O)[C@@H](CO)O2)c1=O
36.8

Turning now to a further compound:
Query: Reported T/C (average tumor weight ratio between test group and control group) for `O=C(CCl)Nc1ccc(C(=O)n2c(=O)c(F)cn([C@H]3C[C@H](O)[C@@H](CO)O3)c2=O)cc1` : what is it?
Result: 34.0

---

Test system: Ehrlich ascites carcinoma
Assay: Inhibition of Ehrlich solid tumor in mice, intraperitoneal administration (Table 1)
Type: in vivo, ddY mice
Settings: 40 mg/kg i.p. once daily for 7 days
Method: 1. Experiment on the inhibition of Ehrlich solid tumor Ehrlich ascites carcinoma was subcutaneously inoculated into the right inguinal region of ddY mice (5 weeks old, male, 8 mice per group) with 3×10^6 cells per mouse. 24 Hours after the inoculation, a test drug suspended or dissolved in 5% HCO 60 (a product manufactured by Nikkol) was administered intraperitoneally successively once daily for 7 days. […]
readoutKind: Body weight change

Check out these entries, answers already filled in.
O=C(c1cccc2ccccc12)n1c(=O)c(F)cn([C@H]2C[C@H](O)[C@@H](CO)O2)c1=O
+6.7 g
O=C(c1ccc2c(c1)OCO2)n1c(=O)c(F)cn([C@H]2C[C@H](O)[C@@H](CO)O2)c1=O
+6.4 g
O=C(CCl)Nc1ccc(C(=O)n2c(=O)c(F)cn([C@H]3C[C@H](O)[C@@H](CO)O3)c2=O)cc1
+4.8 g
O=C(c1c(F)cccc1F)n1c(=O)c(F)cn([C@H]2C[C@H](O)[C@@H](CO)O2)c1=O
+7.9 g

Batch: Body weight change for all items listed.
1. COC(=O)c1ccc(C(=O)n2c(=O)c(F)cn([C@H]3C[C@H](O)[C@@H](CO)O3)c2=O)cc1
2. O=C(c1ccccc1Cl)n1c(=O)c(F)cn([C@H]2C[C@H](O)[C@@H](CO)O2)c1=O

Result:
1. +6.2 g
2. +6.0 g

Give one value of Body weight change per listed molecule.
1. O=C(c1ccc([N+](=O)[O-])cc1)n1c(=O)c(F)cn([C@H]2C[C@H](O)[C@@H](CO)O2)c1=O
2. O=C(CBr)Nc1ccc(C(=O)n2c(=O)c(F)cn([C@H]3C[C@H](O)[C@@H](CO)O3)c2=O)cc1
3. O=C(c1ccccc1I)n1c(=O)c(F)cn([C@H]2C[C@H](O)[C@@H](CO)O2)c1=O

Result:
1: +5.9 g; 2: +2.3 g; 3: +7.6 g

Answer for every listed entry: what is its Body weight change? The entries follow.
1. COc1cccc(OC)c1C(=O)n1c(=O)c(F)cn([C@H]2C[C@H](O)[C@@H](CO)O2)c1=O
2. N#Cc1ccc(C(=O)n2c(=O)c(F)cn([C@H]3C[C@H](O)[C@@H](CO)O3)c2=O)cc1
3. Cc1ccccc1C(=O)n1c(=O)c(F)cn([C@H]2C[C@H](O)[C@@H](CO)O2)c1=O
4. O=C(c1ccc(F)cc1F)n1c(=O)c(F)cn([C@H]2C[C@H](O)[C@@H](CO)O2)c1=O
5. O=C(c1ccco1)n1c(=O)c(F)cn([C@H]2C[C@H](O)[C@@H](CO)O2)c1=O
6. O=C(CCl)Nc1cccc(C(=O)n2c(=O)c(F)cn([C@H]3C[C@H](O)[C@@H](CO)O3)c2=O)c1

Result:
1. +7.8 g
2. +7.2 g
3. +7.3 g
4. +5.9 g
5. +7.9 g
6. +4.4 g

---

Test system: Ehrlich ascites carcinoma
Assay: Inhibition of Ehrlich solid tumor in mice, oral administration starting six days after inoculation (Table 2)
Assay type: in vivo, ddY mice
Conditions: 60 mg/kg orally once daily for 10 days
readoutKind: Body weight change (g)
Give bare numbers, in g.

Batch: Body weight change for all items listed.
1. O=C(CCl)Nc1ccc(C(=O)n2c(=O)c(F)cn([C@H]3C[C@H](O)[C@@H](CO)O3)c2=O)cc1
2. O=C(c1ccc(F)cc1)n1c(=O)c(F)cn([C@H]2C[C@H](O)[C@@H](CO)O2)c1=O
3. O=C(c1ccc2c(c1)OCO2)n1c(=O)c(F)cn([C@H]2C[C@H](O)[C@@H](CO)O2)c1=O
4. O=c1[nH]c(=O)n([C@H]2C[C@H](O)[C@@H](CO)O2)cc1F [FUDR, 5-fluoro-2'-deoxy-β-uridine, reference compound]

Result:
-4.1
-0.4
-0.5
-2.7

---

Record form. Attribute: Body weight change. Fill in for each entry.
Tested on: Ehrlich ascites carcinoma
Assay: Inhibition of Ehrlich solid tumor in mice, intraperitoneal administration (Table 1)
Format: in vivo, ddY mice
Settings: 40 mg/kg i.p. once daily for 7 days

# example entries with known answers
O=C(c1ccc(F)cc1)n1c(=O)c(F)cn([C@H]2C[C@H](O)[C@@H](CO)O2)c1=O
+6.8 g
O=c1[nH]c(=O)n([C@H]2C[C@H](O)[C@@H](CO)O2)cc1F [FUDR, 5-fluoro-2'-deoxy-β-uridine, reference compound]
+6.5 g
CC(=O)OC[C@H]1O[C@@H](n2cc(F)c(=O)n(C(=O)c3ccc4c(c3)OCO4)c2=O)C[C@@H]1OC(C)=O
+6.1 g

Consider the record given below.
Query: Which Body weight change value is on record for `O=C(c1cccc(Cl)c1)n1c(=O)c(F)cn([C@H]2C[C@H](O)[C@@H](CO)O2)c1=O` ?
Result: +7.6 g
